tested.on: RORγ ligand binding domain (LBD) (Homo sapiens, UniProt P51449)
Construct: made in house; host or cells: E. coli BL-21 (BL3), vector pDEST15
Sequence (P51449 269-508 limits assumed): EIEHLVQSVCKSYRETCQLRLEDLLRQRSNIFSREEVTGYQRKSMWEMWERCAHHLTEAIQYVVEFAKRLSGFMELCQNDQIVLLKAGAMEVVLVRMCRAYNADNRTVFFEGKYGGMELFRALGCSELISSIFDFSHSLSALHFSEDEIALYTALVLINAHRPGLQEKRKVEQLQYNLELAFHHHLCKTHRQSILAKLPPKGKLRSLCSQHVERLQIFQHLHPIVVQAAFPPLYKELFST
assay.notes: TR-FRET Activity Assay (ligand sensing, RORγ-LBD / coactivator peptide interaction, LANCE)
Assay type: biochemical
measured.metric: pIC50
Give bare numbers, as −log10 of the molar value.

Some entries whose results are on file:
[
  {
    "compound": "COCc1c(C(=O)NC2CCOCC2)cc(-c2ccc(S(=O)(=O)NC(C)(C)C)c(C(C)(C)C)c2)n1CC1CCCCC1",
    "tested.on": "RORγ ligand binding domain (LBD) (Homo sapiens, UniProt P51449)",
    "measured.metric": "pIC50",
    "assay.result": 6.20
  },
  {
    "compound": "COC(C)(C)CNC(=O)c1cc(-c2cc(C(C)(C)C)cc(C(C)(C)C)c2)n(CC2CCCCC2)c1C",
    "tested.on": "RORγ ligand binding domain (LBD) (Homo sapiens, UniProt P51449)",
    "measured.metric": "pIC50",
    "assay.result": 6.90
  },
  {
    "compound": "Cc1c(C(=O)NCc2nc(C(N)=O)co2)cc(-c2cc(C(C)(C)C)c3c(c2)C2(CCO3)CC2)n1CC1CCCCC1",
    "tested.on": "RORγ ligand binding domain (LBD) (Homo sapiens, UniProt P51449)",
    "measured.metric": "pIC50",
    "assay.result": 6.10
  },
  {
    "compound": "Cc1c(C(=O)N2CCOCC2)cc(-c2ccc(S(=O)(=O)NC(C)(C)C)c(C(F)(F)F)c2)n1CC1CCCCC1",
    "tested.on": "RORγ ligand binding domain (LBD) (Homo sapiens, UniProt P51449)",
    "measured.metric": "pIC50",
    "assay.result": 6.30
  },
  {
    "compound": "Cc1c(C(=O)NC2C[S+]([O-])C2)cc(-c2ccc(S(=O)(=O)NC(C)(C)C)c(C(C)(C)C)c2)n1CC1CCCCC1 (stereo not drawn)",
    "tested.on": "RORγ ligand binding domain (LBD) (Homo sapiens, UniProt P51449)",
    "measured.metric": "pIC50",
    "assay.result": 6.10
  },
  {
    "compound": "Cc1c(C(=O)NC2(C)CCOCC2)cc(-c2ccc(S(=O)(=O)NC(C)(C)C)c(C(C)(C)C)c2)n1CC1CCCCC1",
    "tested.on": "RORγ ligand binding domain (LBD) (Homo sapiens, UniProt P51449)",
    "measured.metric": "pIC50",
    "assay.result": 6.20
  },
  {
    "compound": "Cc1c(C(=O)NC2CCOCC2)cc(-c2ccc(S(=O)(=O)NC(C)(C)C)c(C(F)(F)F)c2)n1CC1CCC(F)CC1 (stereo not drawn)",
    "tested.on": "RORγ ligand binding domain (LBD) (Homo sapiens, UniProt P51449)",
    "measured.metric": "pIC50",
    "assay.result": 6.30
  },
  {
    "compound": "CC(C)(C)NS(=O)(=O)c1ccc(-c2cc(C(=O)NC3CCOCC3)c(CO)n2CC2CCCCC2)cc1C(C)(C)C",
    "tested.on": "RORγ ligand binding domain (LBD) (Homo sapiens, UniProt P51449)",
    "measured.metric": "pIC50",
    "assay.result": 6.00
  }
]

I'm hoping you can list pIC50 for every compound here, please.
1. Cc1c(C(=O)NCCC[S+](C)[O-])cc(-c2cc(C(C)(C)C)c3c(c2)C2(CCO3)CC2)n1CC1CCCCC1 (stereo not drawn)
2. CC(C)(C)NS(=O)(=O)c1ccc(-c2cc(C(=O)NC3CCOCC3)c(Cl)n2CC2CCCCC2)c2ccccc12
3. Cc1c(C(=O)N2CC2CO)cc(-c2cc(C(C)(C)C)cc(C(C)(C)C)c2)n1CC1CCCCC1 (stereo not drawn)
4. Cc1c(C(=O)NCC(C)(C)NS(C)(=O)=O)cc(-c2cc(C(C)(C)C)cc(C3(C)CC3)c2)n1CC1CCCCC1

Completion:
1. 6.00
2. 6.80
3. 6.00
4. 6.60
